- System tested: PARP1 (Homo sapiens, UniProt P09874)
- Sequence (P09874 whole entry): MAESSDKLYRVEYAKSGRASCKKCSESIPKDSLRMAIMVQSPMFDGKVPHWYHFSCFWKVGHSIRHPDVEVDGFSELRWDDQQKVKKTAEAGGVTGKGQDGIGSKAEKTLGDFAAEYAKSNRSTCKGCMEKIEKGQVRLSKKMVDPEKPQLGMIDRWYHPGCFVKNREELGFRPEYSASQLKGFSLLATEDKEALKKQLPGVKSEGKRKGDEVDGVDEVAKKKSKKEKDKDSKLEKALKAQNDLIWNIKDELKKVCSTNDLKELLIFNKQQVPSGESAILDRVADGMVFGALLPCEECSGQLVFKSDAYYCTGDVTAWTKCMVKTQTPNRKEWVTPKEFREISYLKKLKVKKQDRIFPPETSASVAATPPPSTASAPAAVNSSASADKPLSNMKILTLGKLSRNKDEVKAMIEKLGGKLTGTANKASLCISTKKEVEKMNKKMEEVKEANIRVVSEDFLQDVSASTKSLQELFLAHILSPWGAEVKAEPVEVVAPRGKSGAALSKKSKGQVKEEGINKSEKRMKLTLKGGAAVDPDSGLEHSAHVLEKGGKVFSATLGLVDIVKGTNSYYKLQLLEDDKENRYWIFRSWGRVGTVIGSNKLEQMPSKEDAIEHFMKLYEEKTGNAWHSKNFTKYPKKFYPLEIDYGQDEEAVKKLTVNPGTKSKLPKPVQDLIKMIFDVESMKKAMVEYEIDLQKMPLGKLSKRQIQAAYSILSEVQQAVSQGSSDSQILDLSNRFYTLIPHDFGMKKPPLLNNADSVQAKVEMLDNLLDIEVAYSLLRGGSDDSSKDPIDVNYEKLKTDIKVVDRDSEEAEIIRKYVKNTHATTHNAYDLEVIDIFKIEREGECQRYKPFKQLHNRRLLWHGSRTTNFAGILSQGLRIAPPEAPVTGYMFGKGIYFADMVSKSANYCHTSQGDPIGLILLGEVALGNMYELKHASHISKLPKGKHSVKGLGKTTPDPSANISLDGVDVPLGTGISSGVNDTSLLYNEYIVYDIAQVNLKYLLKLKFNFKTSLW
- Assay: PARP trapping assay in U2OS cells
- Type: cell-based
- Design: endogenous in cells; host or cells: U2OS
- Condition description: U2OS cells, MMS, 4 hrs; read-out: PARP Trapping (U2OS)
pIC50: −log10 of the molar value.
Reported metric: pIC50

For orientation, consider the following solved cases.
Molecule	pIC50
CCc1cccc(-c2cnc(C(=O)N3CCC(CN4CCN(CC(=O)N5CCN(C(=O)c6cc(Cc7n[nH]c(=O)c8ccccc78)ccc6F)CC5)CC4)CC3)c(NC)c2)c1	6.00 to 7.00
O=C(N[C@@H](C(=O)N1CCN(CC2CCN(CC(=O)N3CCN(C(=O)c4cc(Cc5n[nH]c(=O)c6ccccc56)ccc4F)CC3)CC2)CC1)C1CCCCC1)c1cc(C2CCCN(C(=O)CNCc3ccc(F)cc3F)C2)ccc1F (stereo partly drawn)	6.00 to 7.00
CC(C)(C)OC(=O)N[C@@H](C(=O)N1C[C@H]2CC[C@@H](C1)[C@H]2OC1CCN(CC(=O)N2CCN(C(=O)c3cc(Cc4n[nH]c(=O)c5ccccc45)ccc3F)CC2)CC1)C1CCCCC1	7.00 to 8.00

Reported pIC50 for CCc1cccc(-c2cnc(C(=O)N3CCN(CC4CCN(CC(=O)N5CCN(C(=O)c6cc(Cc7n[nH]c(=O)c8ccccc78)ccc6F)CC5)CC4)CC3)c(NC(=O)CNCc3ccncn3)c2)c1 was 6.00 to 7.00

Given item CCOc1cc(OC)ccc1CNCC(=O)N1CCCC(c2cccc(C(=O)N[C@@H](C(=O)N3CCN(CC45CCC(C(=O)N6CCN(C(=O)c7cc(Cc8n[nH]c(=O)c9ccccc89)ccc7F)CC6)(CC4)CO5)CC3)C3CCCCC3)c2)C1 (stereo partly drawn) , the value recorded as its pIC50 is 7.00 to 8.00

Record CCc1cccc(-c2cnc(C(=O)N3CCC(CN4CCN(CC(=O)N5CCN(C(=O)c6cc(Cc7n[nH]c(=O)c8ccccc78)ccc6F)CC5)CC4)CC3)c(N)c2)c1 . Reported pIC50: 6.00 to 7.00
